Values were extracted from ChEMBL document CHEMBL1944507.

Test: Half life in Sprague-Dawley rat at 1 mg/kg, iv
Format: ADME, organism-based
Design: dose 1 mg/kg, route intravenous
Settings: in vivo
Measured Property: half-life
Number first, unit second: that is the form wanted.

For the molecule O=C(O[C@@H]1COc2nc([N+](=O)[O-])cn2C1)N1CCN(c2ccc(OC(F)(F)F)cc2)CC1 , what half-life is on record?
8.3 h

----------
Assay: Cmax in Sprague-Dawley rat at 20 mg/kg, po
Format: ADME, organism-based
Parameters: dose 20 mg/kg, route oral
Conditions: in vivo
Measured Property: Cmax (ng/mL)
Give just the number in ng/mL; leave the unit off.

Value lookup for Cmax; key = O=C(O[C@@H]1COc2nc([N+](=O)[O-])cn2C1)N1CCN(c2ccc(OC(F)(F)F)cc2)CC1
4400
